measuredOn: Myc proto-oncogene protein (Homo sapiens, UniProt P01106)
Sequence (P01106 whole entry, the tested form may be a part): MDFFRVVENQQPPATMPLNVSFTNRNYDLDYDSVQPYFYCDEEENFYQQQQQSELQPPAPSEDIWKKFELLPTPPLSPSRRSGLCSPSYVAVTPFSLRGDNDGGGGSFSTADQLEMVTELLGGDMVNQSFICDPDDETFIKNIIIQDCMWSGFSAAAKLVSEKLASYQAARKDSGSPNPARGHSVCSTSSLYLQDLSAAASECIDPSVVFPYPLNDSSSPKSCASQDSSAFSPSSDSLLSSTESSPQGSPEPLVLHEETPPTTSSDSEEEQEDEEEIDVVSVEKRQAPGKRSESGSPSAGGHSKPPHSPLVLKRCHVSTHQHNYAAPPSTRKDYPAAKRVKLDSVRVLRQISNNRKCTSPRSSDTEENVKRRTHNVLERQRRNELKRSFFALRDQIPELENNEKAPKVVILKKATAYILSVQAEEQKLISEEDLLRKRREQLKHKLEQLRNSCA
methodSummary: Binding affinity to recombinant truncated N-terminal hexahistidine-tagged c-Myc (400 to 439 residues) bHLH-ZIP domain (unknown origin) expressed in Escherichia coli BL21 DE3 (pLysS) by fluorescence polarization assay
pKd: −log10 of the molar value.
assayEndpoint: pKd

| moleculeSmiles | numericResult |
| --- | --- |
| O=C1NC(=S)S/C1=C\c1ccc(C(=O)NCCCCCNC(=O)c2ccccc2Nc2ccc([N+](=O)[O-])c3nonc23)cc1 | 6.91 |

* * *

measuredOn: Protein max (Homo sapiens)
methodSummary: Binding affinity to human hexahistidine-tagged Max p21 bHLH-ZIP domain expressed in Escherichia coli M15 (pRep4) at 10 uM by fluorescence polarization assay
Activity calls are given as the source filed them. The calls are words filed in the database; no cut-off is given here.
assayEndpoint: Activity

| moleculeSmiles | result |
| --- | --- |
| O=C1NC(=S)S/C1=C\c1ccc(C(=O)NCCCCCNC(=O)c2ccccc2Nc2ccc([N+](=O)[O-])c3nonc23)cc1 | inactive |
| CCc1ccc(/C=C2\SC(=O)N(CCCCCNC(=O)c3cccc(Nc4ccc([N+](=O)[O-])c5nonc45)c3)C2=O)cc1 | inactive |
| CCc1ccc(/C=C2\SC(=O)N(CCCCCNC(=O)c3ccc(Nc4ccc([N+](=O)[O-])c5nonc45)cc3)C2=O)cc1 | inactive |
| O=C1NC(=S)S/C1=C/c1ccc(C(=O)NCCCCCNC(=O)c2ccc(Nc3ccc([N+](=O)[O-])c4nonc34)cc2)cc1 | inactive |
| O=C1NC(=S)S/C1=C\c1ccc(C(=O)NCCCCCNC(=O)c2cccc(Nc3ccc([N+](=O)[O-])c4nonc34)c2)cc1 | inactive |
